System: UACC-257 melanoma
Assay: NCI tumour cell line growth inhibition, 48 h
Please respond with reported TGI for every item in the list.
Response body: numeric value in µM, unit text excluded.

Q) Need TGI, item CN1CCn2c(c(Sc3ccc(C(=O)NO)cc3)c3ccccc32)C1=O
A) 3.56

Q) What TGI value was documented for this compound, CCN(CC)CCC(=O)c1ccc(Oc2ccccc2)cc1 ?
A) 33.5

Q) Name the recorded TGI for O=C1/C(=C/c2ccc(Cl)cc2)COc2ccc(O)c(O)c21 .
A) 3.88

Q) # TGI lookup, item C=CC(=O)Nc1cccc(C)c1Nc1ncc2cc(-c3c(Cl)c(OC)cc(OC)c3Cl)ccc2n1
A) 68.3

Q) Can you look up the measured TGI of CC(C)CCc1c(Cl)nc(Cl)nc1Cl for me?
A) 34

Q) Requested read-out: TGI. Entry: CN(C)CCCNc1ccc2nnn3c4ccc(OC(=O)c5ccc([N+](=O)[O-])cc5)cc4c(=O)c1c23
A) 31
